- SYSTEM UNDER TEST: Transcription factor E2F1 (Homo sapiens)
- TEST DETAILS: ATG_E2F_CIS: Attagene CIS-FACTORIAL HepG2 Assay for human E2F Transcription Factor 1 (AID 2282935)
- CONDITION NOTES: HepG2 Attagene cis-reporter, E2F reporter RNA transcripts; actives raise or lower the signal
Active and inactive are the calls of the source. The calls were made as follows: active = hit-call score of the fitted dose curve at least 0.9, where 1 is the maximum; inactive = score below 0.9.
Labels: active, inactive

CCCCCCCCCOS(=O)(=O)O : inactive
CC1=CCC(=C(C)C)CC1 : inactive
CC(=O)OC(C)(C)C : inactive
C=CCOCC(O)CO (centres undefined) : active
CC1=C(C=O)C(C)(C)CCC1 : inactive
CN(C)C : inactive
CC(O)CNCC(C)O (centres undefined) : inactive
COc1ccccc1NC(=O)CC(C)=O : inactive
NNC(=O)OCc1ccccc1 : inactive
